test system: LOX IMVI melanoma; assay: NCI tumour cell line growth inhibition, 48 h
MEASURED ENDPOINT: TGI

Field: example entries. Status: answers known.
FC(F)(F)c1nc2cc(SSc3cc4nc(C(F)(F)F)[nH]c4cc3Cl)c(Cl)cc2[nH]1 ... > 100 µM
CCOC(=O)C1CCn2c(nc3c(=O)n(C)c(=O)n(C)c32)S1 (stereo unspecified) ... > 100 µM
CC1CCC(C#N)(NOC2=NCCN2)CC1 (stereo unspecified) ... 20.2 µM
NC(=O)C12CCC1C1CCCCC12N1CCOCC1 (stereo unspecified) ... > 100 µM
Cc1ccc(C(=O)Nc2ccccc2C(=O)N/N=C(\c2ccccc2)c2ccccn2)cc1 ... > 100 µM
Cc1cc2nc(NS(=O)(=O)c3cc(C)c(Cl)cc3S)[nH]c2cc1C ... > 100 µM
CCOC(=O)c1cn2ncnc(Oc3ccc(NC(=O)NCCN(CC)CC)c(Cl)c3)c2c1C ... 3.55 µM
COc1ccc(-c2cc3nccn3c(Nc3ncccc3C(N)=O)n2)cc1OC ... > 100 µM
CC(C)=CCC[C@@H](C)C1=C(O)C(Nc2ccccc2F)=C(C)C(=O)C1=O ... > 100 µM
O/N=C1/C(=C/c2ccccc2)CCCC1C(NO)c1ccccc1 (stereo unspecified) ... > 100 µM

Please find the next molecule below.
stdin: Note down TGI recorded for "C[N+](C)(N)Cc1csc(-c2ccc(Cl)cc2)n1"
stdout: > 100 µM
